Entry source: patent US20090270381A1

# SUBJECT OF TEST: PR-A (Homo sapiens)
# Construct: expressed in transfected cells
# Sequence (P06401 1-769 isoform P06401-2): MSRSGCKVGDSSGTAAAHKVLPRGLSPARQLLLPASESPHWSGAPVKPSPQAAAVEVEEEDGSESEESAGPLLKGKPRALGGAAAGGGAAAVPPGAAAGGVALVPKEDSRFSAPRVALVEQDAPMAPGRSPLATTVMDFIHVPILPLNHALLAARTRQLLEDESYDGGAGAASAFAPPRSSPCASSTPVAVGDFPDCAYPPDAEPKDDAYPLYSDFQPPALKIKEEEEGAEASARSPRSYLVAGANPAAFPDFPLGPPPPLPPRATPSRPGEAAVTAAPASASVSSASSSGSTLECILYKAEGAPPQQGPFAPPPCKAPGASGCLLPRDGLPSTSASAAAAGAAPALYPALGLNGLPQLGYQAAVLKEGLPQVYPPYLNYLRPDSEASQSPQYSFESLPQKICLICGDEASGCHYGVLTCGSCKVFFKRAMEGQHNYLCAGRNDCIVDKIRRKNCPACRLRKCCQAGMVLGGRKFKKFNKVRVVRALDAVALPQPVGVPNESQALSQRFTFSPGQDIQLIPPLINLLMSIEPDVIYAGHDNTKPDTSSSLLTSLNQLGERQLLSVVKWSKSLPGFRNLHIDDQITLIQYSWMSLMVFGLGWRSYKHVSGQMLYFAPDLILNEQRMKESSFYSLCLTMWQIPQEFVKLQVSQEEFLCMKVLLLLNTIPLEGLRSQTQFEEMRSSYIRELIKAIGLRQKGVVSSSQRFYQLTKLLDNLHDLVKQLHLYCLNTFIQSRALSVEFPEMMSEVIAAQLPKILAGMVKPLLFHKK
# TEST METHOD NOTES: Transactivation test on antagonistic activity at PR-A
# Assay type: cell-based
# PROTOCOL CONDITIONS: read-out: Efficacy (antagonism at PR-A) [%]
So I've got a bunch of molecules here, and I need their Emax values.
Give the number; % is assumed, so skip it.

Entry N#Cc1ccc(NC(=O)C(O)(Cc2cccc(-c3cccc(C(=O)N4CCOCC4)c3)c2)C2CCN(C(=O)c3ccccc3)CC2)cc1C(F)(F)F (stereo not drawn) [Example 162] ; Emax = 99

Entry N#Cc1ccc(NC(=O)C(O)(Cc2ccccc2)C2CCN(C(=O)c3ccccc3)CC2)cc1C(F)(F)F (single isomer, unassigned) [Example 101a] ; Emax = 103

Entry CC(=O)c1ccc(-c2ccccc2CC(O)(C(=O)Nc2ccc(C#N)c(Cl)c2)C2CCCCC2)cc1 (single isomer, unassigned) [Example 19a] ; Emax = 108

Entry N#Cc1ccc(NC(=O)C(O)(Cc2ccccc2)C2CCN(C(=O)C3CC3)CC2)cc1C(F)(F)F (single isomer, unassigned) [Example 108] ; Emax = 96

Entry CNC(=O)c1cccc(-c2cccc(CC(O)(C(=O)Nc3ccc(C#N)c(C(F)(F)F)c3)C3CCCCC3)c2)c1 (stereo not drawn) [Example 68] ; Emax = 102

Entry N#Cc1ccc(NC(=O)C(O)(Cc2ccccc2)C2CCN(S(=O)(=O)c3cccc(Cl)c3)CC2)cc1C(F)(F)F (single isomer, unassigned) [Example 111] ; Emax = 103

Entry N#Cc1ccc(NC(=O)C(O)(Cc2cccc(-c3ccc(C(=O)CO)cc3)c2)C2CCCCC2)cc1C(F)(F)F (stereo not drawn) [Example 78] ; Emax = 101

Entry N#Cc1ccc(NC(=O)C(O)(Cc2cccc(-c3cccc(C(N)=O)c3)c2)C2CCN(S(=O)(=O)c3ccc(F)cc3)CC2)cc1C(F)(F)F (single isomer, unassigned) [Example 172] ; Emax = 101

Entry N#Cc1ccc(NC(=O)C(O)(Cc2ccccc2)C2CCN(C(=O)c3ccno3)CC2)cc1C(F)(F)F (single isomer, unassigned) [Example 113] ; Emax = 97.9

Entry Cn1c(C#N)ccc1NC(=O)C(O)(Cc1ccccc1)C1CCCCC1 (stereo not drawn) [Example 97] ; Emax = 105

Entry CNC(=O)c1cccc(-c2cccc(CC(O)(C(=O)Nc3ccc(C#N)c(C(F)(F)F)c3)C3CCN(S(=O)(=O)c4cccc(F)c4)CC3)c2)c1 (stereo not drawn) [Example 169] ; Emax = 103

Entry N#Cc1ccc(NC(=O)C(O)(Cc2cccc(O)c2)C2CCCCC2)cc1C(F)(F)F (single isomer, unassigned) [Example 200b] ; Emax = 98.5
